testMethodNotes: Assessment of capsules after manufacture: amount of tasquinimod and of decomposition products
Type: physicochemical
studyConditions: 1.0 mg capsules of Example 29; 0 months (after manufacturing)
Source text: In some embodiments, the method disclosed herein comprises storing (keeping) a sample of the pharmaceutical product for a period of time, preferably under selected conditions of temperature and humidity. The amount (or concentration) of tasquinimod and of at least one of compounds I, II, III and IV in the sample may preferably be determined at the beginning or before the storage period and at the end of the storage period. […]
Assign Decomposition products (% w/w), relative to the amount of tasquinimod in capsule to each entry below.

[ask] Consider the molecule COc1cccc2c1c(O)c(C(=O)O)c(=O)n2C [Compound II] and give its recorded Decomposition products (% w/w), relative to the amount of tasquinimod in capsule.
[reply] <0.05 % w/w

[ask] Consider the molecule CNc1ccc(C(F)(F)F)cc1 [Compound I, N-methyl-4-(trifluoromethyl)aniline] and give its recorded Decomposition products (% w/w), relative to the amount of tasquinimod in capsule.
[reply] <0.05 % w/w

[ask] Consider the molecule COc1cccc2c1c(O)c(Cc1c(O)c3c(OC)cccc3n(C)c1=O)c(=O)n2C [Compound IV] and give its recorded Decomposition products (% w/w), relative to the amount of tasquinimod in capsule.
[reply] <0.05 % w/w

[ask] Consider the molecule COc1cccc2c1c(O)cc(=O)n2C [Compound III] and give its recorded Decomposition products (% w/w), relative to the amount of tasquinimod in capsule.
[reply] <0.05 % w/w
